Molecular target: T1, human Mint2-PTB-ARM (Mint2-PARM), PARMHis6, residues 364-570 (human, UniProt Q99767 364-570)
T1 sequence (looked up): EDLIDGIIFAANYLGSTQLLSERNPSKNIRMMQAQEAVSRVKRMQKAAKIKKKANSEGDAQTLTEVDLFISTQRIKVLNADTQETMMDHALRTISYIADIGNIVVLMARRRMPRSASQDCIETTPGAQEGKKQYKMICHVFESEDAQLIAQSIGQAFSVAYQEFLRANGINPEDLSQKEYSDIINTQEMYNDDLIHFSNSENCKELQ
Experiment: fluorescence polarisation
pKi: −log10 of the molar value.
Listing of entries alongside the reported pKi.
recorded-metric: pKi

binder: NGYENPTYKFFE [APPWT peptide (NGYENPTYKFFE; residues 755-766)]
value-relation-sign: =
obs-value: 5.40
--
binder: NGYEQPTYKFFE (peptide, UniProt P05067 755-766, looked up) [APPWT peptide N759Q]
value-relation-sign: ≤
obs-value: 3.30

Values were extracted from paper PMC8176898.
